Catalogue of selectivity ratio values
procedure_text: Selectivity index, ratio of CC50 for CHO cells to MIC for multidrug (INH and RIF)-resistant Mycobacterium tuberculosis clinical isolate 1
Assay type: toxicity
setup_conditions: hamster, read-out: Selectivity Index

smiles_notation	operator	selectivity ratio
CCOC(=O)c1c(-c2ccc(OC)cc2)oc2ccc(OCCCN3C(=O)C(=O)c4cc(F)ccc43)cc12	=	32
CCOC(=O)c1c(-c2ccc(F)cc2)oc2ccc(OCCCCCCN3C(=O)/C(=N\O)c4cc(OC)ccc43)cc12	=	128
CCOC(=O)c1c(-c2ccc(F)cc2)oc2ccc(OCCCCCCN3C(=O)/C(=N/OC)c4ccccc43)cc12	=	258
CCOC(=O)c1c(-c2ccc(OC)cc2)oc2ccc(OCCCCCN3C(=O)C(=O)c4ccccc43)cc12	=	64
CNC(=O)c1c(-c2ccc(O)cc2)oc2ccc(O)c(CN3CCCCC3)c12	>	16400
CCOC(=O)c1c(-c2ccc(F)cc2)oc2ccc(OCCCCCCN3C(=O)C(=O)c4cc(OC)ccc43)cc12	=	128

Source of measurements: ChEMBL document CHEMBL4311962
